- METHOD SUMMARY: Pharmacokinetic studies, single oral and intravenous dose
- Format: in vivo, BALB/c mice
- CONDITION SET: male, BALB/c, mouse, plasma; PhosE 3 mg/kg iv, analyte PhosE
READOUT: MRT last
Quick note: unit goes after the number.

Query: MRT last; subject: NCCOP(=O)(O)O 47.4 min

----------
- METHOD SUMMARY: Pharmacokinetic studies, single oral and intravenous dose
- Type: in vivo, BALB/c mice
- CONDITION SET: male, BALB/c, mouse, plasma; PhosE 60 mg/kg po vs 3 mg/kg iv, analyte PhosE; read-out: F (oral bioavailability)
READOUT: bioavailability (%)
Numbers only, in %.

Could you tell me which bioavailability is on file for NCCOP(=O)(O)O ? 19

----------
- EXPERIMENTAL SYSTEM: CYP2D6 (Homo sapiens, UniProt P10635)
- Sequence (P10635 whole entry): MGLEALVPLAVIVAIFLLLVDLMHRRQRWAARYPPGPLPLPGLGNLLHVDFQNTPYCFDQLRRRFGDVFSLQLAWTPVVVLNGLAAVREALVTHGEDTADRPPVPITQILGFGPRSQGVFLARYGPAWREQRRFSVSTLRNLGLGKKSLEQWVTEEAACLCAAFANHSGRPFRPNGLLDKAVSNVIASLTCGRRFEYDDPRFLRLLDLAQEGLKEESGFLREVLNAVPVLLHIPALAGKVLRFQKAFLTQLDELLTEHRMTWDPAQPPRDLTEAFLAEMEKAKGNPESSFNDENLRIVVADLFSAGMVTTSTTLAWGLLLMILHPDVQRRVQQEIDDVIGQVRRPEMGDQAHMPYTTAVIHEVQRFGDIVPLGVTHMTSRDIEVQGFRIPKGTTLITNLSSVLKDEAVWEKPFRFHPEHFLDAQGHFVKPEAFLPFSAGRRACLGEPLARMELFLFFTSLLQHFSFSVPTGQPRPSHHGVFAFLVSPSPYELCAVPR
READOUT: IC50

COMPOUND	EXPERIMENTAL SYSTEM	OBSERVED
NCCOP(=O)(O)O [PhosE, phosphoethanolamine]	CYP2D6 (Homo sapiens, UniProt P10635)	> 100 µM

Next up:
If you can, please state the reported IC50 value of NCCO [Etn, monoethanolamine] . > 100 µM

----------
- METHOD SUMMARY: in vivo
- Set-up: species or system SD rats
- CONDITION SET: female, SD, rat, po, 40 mg/kg, pH 5, AUClast
READOUT: AUC(0-t) (ng·h/mL)
Numbers only, in ng·h/mL.

What AUC(0-t) value was documented for this compound, NCCO ? 33800

----------
- METHOD SUMMARY: Pharmacokinetic studies, single oral and intravenous dose
- Type: in vivo, BALB/c mice
- CONDITION SET: male, BALB/c, mouse, plasma, iv, 3 mg/kg, PhosE 3 mg/kg iv, analyte PhosE
READOUT: half-life

I would be grateful if you could share the reported half-life for NCCOP(=O)(O)O . < 1 h

----------
- METHOD SUMMARY: Pharmacokinetic studies, single oral and intravenous dose
- Format: in vivo, BALB/c mice
- CONDITION SET: male, BALB/c, mouse, plasma; PhosE 3 mg/kg iv, analyte PhosE
READOUT: clearance (mL/min/kg)
Answers are plain numbers, in mL/min/kg.

Item NCCOP(=O)(O)O [PhosE, phosphoethanolamine] has what recorded clearance? 102

----------
- METHOD SUMMARY: in vivo
- Set-up: species or system SD rats
- CONDITION SET: female, SD, rat, po, 40 mg/kg, pH 7.4, AUClast
READOUT: AUC(0-t) (ng·h/mL)
Numbers only, in ng·h/mL.

Fill in the blank: the reported AUC(0-t) of NCCO is ____. 29000

----------
- METHOD SUMMARY: in vivo
- Set-up: species or system SD rats
- CONDITION SET: male, SD, rat, po, 40 mg/kg, pH 5, AUClast
READOUT: AUC(0-t) (ng·h/mL)
One number for each entry, in ng·h/mL.

Given NCCO , state its recorded AUC(0-t). 29500

----------
- METHOD SUMMARY: Pharmacokinetic studies, single oral and intravenous dose
- Format: in vivo, BALB/c mice
- CONDITION SET: male, BALB/c, mouse, plasma; PhosE 60 mg/kg po, analyte PhosE
READOUT: AUC(0-t)
A complete answer gives the number followed by the unit.

What does the record list as AUC(0-t) for NCCOP(=O)(O)O ? 1890 ng·h/mL
